Molecular target: Coagulation factor XII (Homo sapiens);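 note: activated factor XIIa alpha cleaving a fluorogenic AMC peptide substrate; inhibitor potency from loss of enzyme activity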
Sequence (P00748 20-372 limits assumed): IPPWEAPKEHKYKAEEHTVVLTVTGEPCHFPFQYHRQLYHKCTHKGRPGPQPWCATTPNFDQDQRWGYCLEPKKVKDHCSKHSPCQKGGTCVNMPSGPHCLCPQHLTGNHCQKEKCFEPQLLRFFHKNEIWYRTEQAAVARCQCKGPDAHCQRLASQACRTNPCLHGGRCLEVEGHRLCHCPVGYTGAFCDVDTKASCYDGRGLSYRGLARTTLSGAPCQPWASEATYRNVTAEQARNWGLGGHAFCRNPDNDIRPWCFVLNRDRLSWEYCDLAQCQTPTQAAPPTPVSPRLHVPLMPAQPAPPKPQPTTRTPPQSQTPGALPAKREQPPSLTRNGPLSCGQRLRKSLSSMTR
Sequence (P00748 373-615 limits assumed): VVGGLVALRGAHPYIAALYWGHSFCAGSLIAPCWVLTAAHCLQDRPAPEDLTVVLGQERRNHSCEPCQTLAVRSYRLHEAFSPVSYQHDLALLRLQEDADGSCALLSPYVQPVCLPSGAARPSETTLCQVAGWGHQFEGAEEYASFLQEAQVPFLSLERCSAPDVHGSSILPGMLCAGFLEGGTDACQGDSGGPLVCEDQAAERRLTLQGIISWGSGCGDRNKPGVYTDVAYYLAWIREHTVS
Type: functional
The source made the active and inactive calls. Numbered stars: 1 amine (or outer) side, 2 acyl side, 3 side chain; on linkers, the order of the positions; unused ones are H or OH. Square brackets hold non-standard residues; d marks the D form. Peptide text beside a SMILES is read from it. ξ: configuration not given here. ξR = N=C(N)NCCCC(N)C(=O)O; ξF = NC(Cc1ccccc1)C(=O)O; CO = O=C([*:1])[*:2]
Your response should consist of one outcome taken from Y (active), N (inactive)

Worked examples follow.
Task: What classification did "COc1ccccc1NC(=O)CSc1nnnn1C" end up with in this test?
Output: N

Task: Would you mind telling me which call this test gave "CC(C)(C)C(=O)N1N=C(Nc2ccccc2)SC1(C)C" ?
Output: N

Task: Record lookup: outcome of this test for CC(C)[C@H](NC(=O)[C@H](CCCN=C(N)N)NC(=O)NC(Cc1ccccc1)C(=O)O)C(=O)NC(C=O)CCCN=C(N)N (stereo partly drawn) ({ξF-CO}-Arg-Val-[ξR]-aldehyde) ?
Output: Y

Task: What classification did "Oc1c2nc3cccc(Cl)c3c-2ncn1CCN1CCCCC1" end up with in this test?
Output: N

Turning now to a further record.
Task: For "Cn1c(-c2ccccc2)cnc1SCC(N)=O" , which call appears in the assay record?
Output: N

###

Target: Estrogen receptor beta (Homo sapiens);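 note: recombinant ER-beta bound to coactivator SRC1 peptide in presence of estradiol agonist; inhibitors block coactivator peptide binding and lower the FRET signal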
Sequence (Q92731 whole entry): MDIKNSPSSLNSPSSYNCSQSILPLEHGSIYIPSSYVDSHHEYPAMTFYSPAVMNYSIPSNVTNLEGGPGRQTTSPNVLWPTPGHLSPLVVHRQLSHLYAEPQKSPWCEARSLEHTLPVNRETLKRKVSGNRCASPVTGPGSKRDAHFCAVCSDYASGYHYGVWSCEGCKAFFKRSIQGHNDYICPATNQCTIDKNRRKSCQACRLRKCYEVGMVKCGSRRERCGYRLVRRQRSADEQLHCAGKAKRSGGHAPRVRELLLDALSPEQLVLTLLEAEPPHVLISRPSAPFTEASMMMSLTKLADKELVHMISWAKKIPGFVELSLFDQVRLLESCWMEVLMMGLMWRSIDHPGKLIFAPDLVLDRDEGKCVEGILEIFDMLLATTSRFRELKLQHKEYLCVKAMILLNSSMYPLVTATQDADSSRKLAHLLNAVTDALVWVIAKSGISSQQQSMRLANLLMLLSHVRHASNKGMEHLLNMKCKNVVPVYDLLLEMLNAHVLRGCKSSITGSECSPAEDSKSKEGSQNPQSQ
Calls of active or inactive are those of the source.
We begin with a simple list: items and their reported IC50.

Observed IC50 on Estrogen receptor beta (Homo sapiens), entry "CCOc1ccc2nc(NC(=O)CCC(=O)c3cccs3)sc2c1" , equals 9.84 µM (active)

So the reported IC50 for "C=CCSC1=N/C(=C\C=C\c2ccco2)C(=O)S1" , on Estrogen receptor beta (Homo sapiens), turned out to be 10.3 µM (active)

Fill in: Estrogen receptor beta (Homo sapiens) IC50 for "CCOc1ccccc1-n1nnnc1SCC(=O)NC(=O)NCc1ccco1" = 7.76 µM (active)

# lookup: "COCCn1c(C)cc(C(=O)COC(=O)c2cc3c(s2)CCC3)c1C" on Estrogen receptor beta (Homo sapiens), IC50 = > 50 µM (not active)

Next:
Test item "Cc1ccc(-c2nc3s/c(=C\c4ccco4)c(=O)n3n2)cc1" ; Estrogen receptor beta (Homo sapiens); reported IC50 was > 50 µM (not active)

Result for "CC(=O)Nc1nonc1-c1nc2ccccc2n1N(C(C)=O)C(C)=O" , tested on Estrogen receptor beta (Homo sapiens), IC50: 2.75 µM (active)

###

Reported AC50 values, Cytochrome P450 2D6 (Homo sapiens, UniProt P10635).

Examples with their reported AC50 follow.
Fill in: Cytochrome P450 2D6 (Homo sapiens, UniProt P10635) AC50 for "Cc1cc([C@](C)(N)C(=O)O)ccc1P(=O)(O)O" = 12.6 µM (inconclusive)

The observed AC50 for "O=C(NC(=S)Nc1ccc(Br)cn1)c1cncc(Br)c1" when tested with Cytochrome P450 2D6 (Homo sapiens, UniProt P10635) stands at 0.631 µM (inconclusive)

Noted AC50 for "COc1ccccc1NS(=O)(=O)c1cccc(C(=O)OCC(=O)Nc2cc(C)on2)c1" , tested on Cytochrome P450 2D6 (Homo sapiens, UniProt P10635): 31.6 µM (inconclusive)

Further cases:
AC50 on Cytochrome P450 2D6 (Homo sapiens, UniProt P10635) for "O=C(Nc1cccc(F)c1)N1CC2(CCN(S(=O)(=O)c3ccccc3)CC2)C1" is 39.8 µM (inconclusive)

AC50 on Cytochrome P450 2D6 (Homo sapiens, UniProt P10635) for "C/C(=N\OC(=O)c1ccccc1F)c1nccs1" is 28.2 µM (inconclusive)

Sample "COc1ccccc1-c1nc(NCCN2CCOCC2)c2ccccc2n1" , system: Cytochrome P450 2D6 (Homo sapiens, UniProt P10635). Its AC50 is 31.6 µM (inconclusive)

Record "CC(=O)NCCn1c(SCC(=O)NCc2ccco2)nc2ccccc2c1=O" / Cytochrome P450 2D6 (Homo sapiens, UniProt P10635), AC50 recorded as 0.0447 µM (inconclusive)

Readout AC50 for "Cc1ccc(C2=C(Cl)C(=O)C(c3ccc(C)cc3)=C(Cl)C2=O)cc1" , test system Cytochrome P450 2D6 (Homo sapiens, UniProt P10635), was 3.98 µM (inconclusive)

The compound "CCOC(=O)c1cnn(-c2ccc(C(C)C)cc2)c1NC(=O)C1CCC1" , tested on Cytochrome P450 2D6 (Homo sapiens, UniProt P10635), showed AC50 of 8.91 µM (inconclusive)

Param item: "CCCc1nc2ccccc2c(=O)n1-c1ccc(OC)cc1" ; param system: Cytochrome P450 2D6 (Homo sapiens, UniProt P10635); output AC50: 14.1 µM (inconclusive)

Let me check: "Clc1ccccc1-c1nc(Nc2ccncc2)c2ccccc2n1" , system Cytochrome P450 2D6 (Homo sapiens, UniProt P10635), measured AC50 is 39.8 µM (inconclusive)
